# experiment: Selectivity ratio of IC50 for human MCF10A cells to IC50 for human MDA-MB-231 cells
# Type: toxicity
# conditions_used: MCF10A cells versus MDA-MB-231 cells, read-out: Ratio IC50
Would you kindly list selectivity ratio for each of these compounds?

// solved cases for selectivity ratio follow
COc1cc(C2CC(c3cccc(Oc4cc(O/N=[N+](\[O-])N5CCCCC5)c([N+](=O)[O-])cc4[N+](=O)[O-])c3)=NN2C(C)=O)cc(OC)c1OC (configuration not stated) | 11.2
COc1cc(/C=C/C(=O)c2cccc(Oc3cc(O/N=[N+](\[O-])N4CCCCC4)c([N+](=O)[O-])cc3[N+](=O)[O-])c2)cc(OC)c1OC | 23.6
CC(=O)N1N=C(c2cccc(Oc3cc(O/N=[N+](\[O-])N4CCOCC4)c([N+](=O)[O-])cc3[N+](=O)[O-])c2)CC1c1ccc(N(C)C)cc1 (configuration not stated) | 5.6
COc1ccc(C2CC(c3cccc(Oc4cc(O/N=[N+](\[O-])N5CCOCC5)c([N+](=O)[O-])cc4[N+](=O)[O-])c3)=NN2C(C)=O)cc1 (configuration not stated) | 6.1
COc1ccc(C2CC(c3cccc(Oc4cc(O/N=[N+](\[O-])N5CCCCC5)c([N+](=O)[O-])cc4[N+](=O)[O-])c3)=NN2C(C)=O)cc1 (configuration not stated) | 8.2
COc1ccc(/C=C/C(=O)c2cccc(Oc3cc(O/N=[N+](\[O-])N4CCOCC4)c([N+](=O)[O-])cc3[N+](=O)[O-])c2)cc1 | 3.1

The recorded selectivity ratio for "COc1ccc(/C=C/C(=O)c2cccc(Oc3cc(O/N=[N+](\[O-])N4CCOCC4)c([N+](=O)[O-])cc3[N+](=O)[O-])c2)cc1OC" is 10.2

* * *

# Tested on: A549
# experiment: Antiproliferative activity against human A549 cells after 48 hrs by MTT assay relative to control
# Type: functional, cell-based
# conditions_used: A549, 48 h
reported_metric: IC50
Please append the unit to your numeric answer.

COc1ccc(C2CC(c3cccc(Oc4cc(O/N=[N+](\[O-])N5CCOCC5)c([N+](=O)[O-])cc4[N+](=O)[O-])c3)=NN2C(C)=O)cc1 (stereo unspecified) | 2.86 µM

Kindly give each listed record's IC50.
1. COc1cc(/C=C/C(=O)c2cccc(Oc3cc(O/N=[N+](\[O-])N4CCOCC4)c([N+](=O)[O-])cc3[N+](=O)[O-])c2)cc(OC)c1OC
2. COc1ccc(/C=C/C(=O)c2cccc(Oc3cc(O/N=[N+](\[O-])N4CCCCC4)c([N+](=O)[O-])cc3[N+](=O)[O-])c2)cc1OC
3. CCOC(=O)N1CCN(/[N+]([O-])=N/Oc2ccc([N+](=O)[O-])cc2[N+](=O)[O-])CC1
4. COc1ccc(/C=C/C(=O)c2cccc(Oc3cc(O/N=[N+](\[O-])N4CCCCC4)c([N+](=O)[O-])cc3[N+](=O)[O-])c2)cc1
5. COc1cc(C2CC(c3cccc(Oc4cc(O/N=[N+](\[O-])N5CCOCC5)c([N+](=O)[O-])cc4[N+](=O)[O-])c3)=NN2C(C)=O)cc(OC)c1OC (stereo unspecified)

Reply:
1.96 µM
9.63 µM
6.53 µM
8.58 µM
6.11 µM

* * *

# Tested on: HCT-116
# experiment: Cytotoxicity against human HCT116 cells overexpressing GST-Pi assessed as inhibition of cell viability at 10 uM after 48 hrs by MTT assay relative to control
# Assay type: functional
# conditions_used: HCT-116, 48 h
reported_metric: inhibition at 10 µM
Please append the unit to your numeric answer.

// solved cases for inhibition at 10 µM follow
CC(=O)N1N=C(c2cccc(Oc3cc(O/N=[N+](\[O-])N4CCOCC4)c([N+](=O)[O-])cc3[N+](=O)[O-])c2)CC1c1ccc(N(C)C)cc1 (stereo unspecified) | 78.3%
CCCCOc1ccc(C2CC(c3cccc(Oc4cc(O/N=[N+](\[O-])N5CCOCC5)c([N+](=O)[O-])cc4[N+](=O)[O-])c3)=NN2C(C)=O)cc1OC (stereo unspecified) | 75.7%

Kindly give each listed record's inhibition at 10 µM.
1. CC(=O)N1N=C(c2cccc(Oc3cc(O/N=[N+](\[O-])N4CCCCC4)c([N+](=O)[O-])cc3[N+](=O)[O-])c2)CC1c1ccc(C)cc1 (stereo unspecified)
2. CCCCCOc1ccc(C2CC(c3cccc(Oc4cc(O/N=[N+](\[O-])N5CCOCC5)c([N+](=O)[O-])cc4[N+](=O)[O-])c3)=NN2C(C)=O)cc1OC (stereo unspecified)
3. COc1ccc(/C=C/C(=O)c2cccc(Oc3cc(O/N=[N+](\[O-])N4CCCCC4)c([N+](=O)[O-])cc3[N+](=O)[O-])c2)cc1OC
4. CN(C)c1ccc(/C=C/C(=O)c2cccc(Oc3cc(O/N=[N+](\[O-])N4CCCCC4)c([N+](=O)[O-])cc3[N+](=O)[O-])c2)cc1

Reply:
["75.9%", "68.3%", "66.1%", "65.9%"]

* * *

# Test system: HCT-116
# experiment: Cytotoxicity against human HCT116 cells overexpressing GST-Pi assessed as inhibition of cell viability at 10 uM after 48 hrs by MTT assay relative to control
# Type: functional
# conditions_used: HCT-116, 48 h
Returns one of Criterion met or Criterion not met; Criterion met when inhibition at 10 µM is >= 70%.

Use the examples below as a reference point.
CCOC(=O)N1CCN(/[N+]([O-])=N/Oc2ccc([N+](=O)[O-])cc2[N+](=O)[O-])CC1 | Criterion met
COc1ccc(C2CC(c3cccc(Oc4cc(O/N=[N+](\[O-])N5CCCCC5)c([N+](=O)[O-])cc4[N+](=O)[O-])c3)=NN2C(C)=O)cc1OC (stereo unspecified) | Criterion met
CCCCCCOc1ccc(/C=C/C(=O)c2cccc(Oc3cc(O/N=[N+](\[O-])N4CCOCC4)c([N+](=O)[O-])cc3[N+](=O)[O-])c2)cc1OC | Criterion not met
CCCCCOc1ccc(C2CC(c3cccc(Oc4cc(O/N=[N+](\[O-])N5CCCCC5)c([N+](=O)[O-])cc4[N+](=O)[O-])c3)=NN2C(C)=O)cc1OC (stereo unspecified) | Criterion not met

Alright, here's another molecule for you.
Ask: Is inhibition at 10 µM for CCCCCCOc1ccc(C2CC(c3cccc(Oc4cc(O/N=[N+](\[O-])N5CCOCC5)c([N+](=O)[O-])cc4[N+](=O)[O-])c3)=NN2C(C)=O)cc1OC (stereo unspecified) at or above 70%?
Reply: Criterion not met

* * *

# System: HCT-116
# experiment: Cytotoxicity against human HCT116 cells overexpressing GST-Pi assessed as inhibition of cell viability at 10 uM after 48 hrs by MTT assay relative to control
# Type: functional
# conditions_used: HCT-116, 48 h
reported_metric: inhibition at 10 µM (%)
Numbers only, in %.

// solved cases for inhibition at 10 µM follow
COc1cc(/C=C/C(=O)c2cccc(Oc3cc(O/N=[N+](\[O-])N4CCCCC4)c([N+](=O)[O-])cc3[N+](=O)[O-])c2)cc(OC)c1OC | 63.7
COc1ccc(C2CC(c3cccc(Oc4cc(O/N=[N+](\[O-])N5CCOCC5)c([N+](=O)[O-])cc4[N+](=O)[O-])c3)=NN2C(C)=O)cc1OC (stereo unspecified) | 81.2
COc1cc(C2CC(c3cccc(Oc4cc(O/N=[N+](\[O-])N5CCCCC5)c([N+](=O)[O-])cc4[N+](=O)[O-])c3)=NN2C(C)=O)cc(OC)c1OC (stereo unspecified) | 80.8
COc1ccc(/C=C/C(=O)c2cccc(Oc3cc(O/N=[N+](\[O-])N4CCOCC4)c([N+](=O)[O-])cc3[N+](=O)[O-])c2)cc1OC | 75.6
CCCCCOc1ccc(/C=C/C(=O)c2cccc(Oc3cc(O/N=[N+](\[O-])N4CCCCC4)c([N+](=O)[O-])cc3[N+](=O)[O-])c2)cc1OC | 33
CCCCCCOc1ccc(C2CC(c3cccc(Oc4cc(O/N=[N+](\[O-])N5CCCCC5)c([N+](=O)[O-])cc4[N+](=O)[O-])c3)=NN2C(C)=O)cc1OC (stereo unspecified) | 48
CCCCOc1ccc(C2CC(c3cccc(Oc4cc(O/N=[N+](\[O-])N5CCCCC5)c([N+](=O)[O-])cc4[N+](=O)[O-])c3)=NN2C(C)=O)cc1OC (stereo unspecified) | 72.9
COc1cc(C2CC(c3cccc(Oc4cc(O/N=[N+](\[O-])N5CCOCC5)c([N+](=O)[O-])cc4[N+](=O)[O-])c3)=NN2C(C)=O)cc(OC)c1OC (stereo unspecified) | 76.2
CCCCOc1ccc(/C=C/C(=O)c2cccc(Oc3cc(O/N=[N+](\[O-])N4CCOCC4)c([N+](=O)[O-])cc3[N+](=O)[O-])c2)cc1OC | 70.2
Cc1ccc(/C=C/C(=O)c2cccc(Oc3cc(O/N=[N+](\[O-])N4CCOCC4)c([N+](=O)[O-])cc3[N+](=O)[O-])c2)cc1 | 61.2

Kindly give each listed record's inhibition at 10 µM.
1. COc1ccc(C2CC(c3cccc(Oc4cc(O/N=[N+](\[O-])N5CCOCC5)c([N+](=O)[O-])cc4[N+](=O)[O-])c3)=NN2C(C)=O)cc1 (stereo unspecified)
2. COc1cc(/C=C/C(=O)c2cccc(Oc3cc(O/N=[N+](\[O-])N4CCOCC4)c([N+](=O)[O-])cc3[N+](=O)[O-])c2)cc(OC)c1OC
3. COc1ccc(/C=C/C(=O)c2cccc(Oc3cc(O/N=[N+](\[O-])N4CCOCC4)c([N+](=O)[O-])cc3[N+](=O)[O-])c2)cc1
4. CCCCCCOc1ccc(/C=C/C(=O)c2cccc(Oc3cc(O/N=[N+](\[O-])N4CCCCC4)c([N+](=O)[O-])cc3[N+](=O)[O-])c2)cc1OC
5. COc1ccc(C2CC(c3cccc(Oc4cc(O/N=[N+](\[O-])N5CCCCC5)c([N+](=O)[O-])cc4[N+](=O)[O-])c3)=NN2C(C)=O)cc1 (stereo unspecified)
6. CCCCOc1ccc(/C=C/C(=O)c2cccc(Oc3cc(O/N=[N+](\[O-])N4CCCCC4)c([N+](=O)[O-])cc3[N+](=O)[O-])c2)cc1OC
7. CC(=O)N1N=C(c2cccc(Oc3cc(O/N=[N+](\[O-])N4CCCCC4)c([N+](=O)[O-])cc3[N+](=O)[O-])c2)CC1c1ccc(N(C)C)cc1 (stereo unspecified)

Reply:
79.9
77.6
68.7
16.1
80.4
58.6
81.3

Kindly give each listed record's inhibition at 10 µM.
1. CC(=O)N1N=C(c2cccc(Oc3cc(O/N=[N+](\[O-])N4CCOCC4)c([N+](=O)[O-])cc3[N+](=O)[O-])c2)CC1c1ccc(C)cc1 (stereo unspecified)
2. CCCCCOc1ccc(/C=C/C(=O)c2cccc(Oc3cc(O/N=[N+](\[O-])N4CCOCC4)c([N+](=O)[O-])cc3[N+](=O)[O-])c2)cc1OC
3. CN(C)c1ccc(/C=C/C(=O)c2cccc(Oc3cc(O/N=[N+](\[O-])N4CCOCC4)c([N+](=O)[O-])cc3[N+](=O)[O-])c2)cc1
4. Cc1ccc(/C=C/C(=O)c2cccc(Oc3cc(O/N=[N+](\[O-])N4CCCCC4)c([N+](=O)[O-])cc3[N+](=O)[O-])c2)cc1

Reply:
77.8
66.6
57.1
62.2
